system: MCF7; experiment: percentage of EdU-negative (G0-arrested) nuclei per well, 72 h; higher = more G0 arrest; settings: protein concentration 0.225 µM; reference: sequence is the full UniProt precursor, the tested protein was the secreted form or ectodomain;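 also: secreted proteins added to cultured cells, EdU pulse at the end, nuclei found by Hoechst imaging, EdU status from nuclear versus surrounding ring intensity ratio, PBS as neutral control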
Consider the following sequences; for each one, report its percentage of EdU-negative.
Answers are plain numbers, in %.

{"entry.sequence": "MARYMLLLLLAVWVLTGELWPGAEARAAPYGVRLCGREFIRAVIFTCGGSRWRRSDILAHEAMGDTFPDADADEDSLAGELDEAMGSSEWLALTKSPQAFYRGRPSWQGTPGVLRGSRDVLAGLSSSCCKWGCSKSEISSLC [Q8WXF3]", "experimental.system": "MCF7", "value.unit": "%", "value.measured": 26.3}

Now examine the next entry.
Quick note, percentage of EdU-negative for MVMRPLWSLLLWEALLPITVTGAQVLSKVGGSVLLVAARPPGFQVREAIWRSLWPSEELLATFFRGSLETLYHSRFLGRAQLHSNLSLELGPLESGDSGNFSVLMVDTRGQPWTQTLQLKVYDAVPRPVVQVFIAVERDAQPSKTCQVFLSCWAPNISEITYSWRRETTMDFGMEPHSLFTDGQVLSISLGPGDRDVAYSCIVSNPVSWDLATVTPWDSCHHEAAPGKASYKDVLLVVVPVSLLLMLVTLFSAWHWCPCSGKKKKDVHADRVGPETENPLVQDLP [Q9P0V8] landed at 28.8
